Test system: PC-3
Assay: Cytotoxicity against human PC3 cells after 72 hrs by MTT assay
Format: functional, cell-based
Conditions: PC-3, 72 h
Give pIC50 for every item shown.
Units for pIC50: none; it is -log10 of a concentration expressed in mol/L.

So, C=C(C)[C@@H]1CC[C@]2(COC(=O)/C=C/C(=O)O)CC[C@]3(C)[C@H](CC[C@@H]4[C@@]5(C)CC[C@H](O)C(C)(C)[C@@H]5CC[C@]43C)[C@@H]12 ? Its pIC50 was 4.59

So, C=C(C)[C@@H]1CC[C@]2(COC(=O)CCC(=O)N(CC)CC)CC[C@]3(C)[C@H](CC[C@@H]4[C@@]5(C)CC[C@H](O)C(C)(C)[C@@H]5CC[C@]43C)[C@@H]12 ? Its pIC50 was 5.02

====

Give pIC50 for every item shown.
System: PC-3
Assay: Cytotoxicity against human PC3 cells after 72 hrs by MTT assay
Format: functional, cell-based
Conditions: PC-3, 72 h
Units for pIC50: none; it is -log10 of a concentration expressed in mol/L.

So, C=C(C)[C@@H]1CC[C@]2(COC(=O)CCC(=O)O)CC[C@]3(C)[C@H](CC[C@@H]4[C@@]5(C)CC[C@H](O)C(C)(C)[C@@H]5CC[C@]43C)[C@@H]12 ? Its pIC50 was 4.90

So, C=C(C)[C@@H]1CC[C@]2(COC(=O)CCC(=O)N3CCCCC3)CC[C@]3(C)[C@H](CC[C@@H]4[C@@]5(C)CC[C@H](O)C(C)(C)[C@@H]5CC[C@]43C)[C@@H]12 ? Its pIC50 was 5.35

====

System: PC-3
Experiment: Cytotoxicity against human PC3 cells after 72 hrs by MTT assay
Assay type: functional, cell-based
Details: PC-3, 72 h
Measurement kind: IC50

Short answer on PC-3 for C=C(C)[C@@H]1CC[C@]2(COC(=O)c3ccccc3)CC[C@]3(C)[C@H](CC[C@@H]4[C@@]5(C)CC[C@H](O)C(C)(C)[C@@H]5CC[C@]43C)[C@@H]12 , IC50: > 100 µM

Short answer on PC-3 for C=C(C)[C@@H]1CC[C@]2(CO)CC[C@]3(C)[C@H](CC[C@@H]4[C@@]5(C)CC[C@H](O)C(C)(C)[C@@H]5CC[C@]43C)[C@@H]12 [BETULIN] , IC50: 22.4 µM

Short answer on PC-3 for C=C(C)[C@@H]1CC[C@]2(COC(=O)/C=C/c3ccccc3)CC[C@]3(C)[C@H](CC[C@@H]4[C@@]5(C)CC[C@H](O)C(C)(C)[C@@H]5CC[C@]43C)[C@@H]12 , IC50: > 100 µM

====

Tested on: A-375
Test: Cytotoxicity against human A375 cells after 72 hrs by MTT assay
Format: functional, cell-based
Settings: A-375, 72 h
pIC50: −log10 of the molar value.
Measurement kind: pIC50

So, C=C(C)[C@@H]1CC[C@]2(COC(=O)c3ccc(F)cc3)CC[C@]3(C)[C@H](CC[C@@H]4[C@@]5(C)CC[C@H](O)C(C)(C)[C@@H]5CC[C@]43C)[C@@H]12 ? Its pIC50 was < 4.00

So, C=C(C)[C@@H]1CC[C@]2(COC(=O)c3ccccc3C(F)(F)F)CC[C@]3(C)[C@H](CC[C@@H]4[C@@]5(C)CC[C@H](O)C(C)(C)[C@@H]5CC[C@]43C)[C@@H]12 ? Its pIC50 was < 4.00

So, C=C(C)[C@@H]1CC[C@]2(CO)CC[C@]3(C)[C@H](CC[C@@H]4[C@@]5(C)CC[C@H](O)C(C)(C)[C@@H]5CC[C@]43C)[C@@H]12 [BETULIN] ? Its pIC50 was 4.55
